test system: RARg homodimer (NR concentration 270 nM); experiment: PBM binding z-score (relative to random genomic background probes); higher = stronger binding; sequences stand for … in GC…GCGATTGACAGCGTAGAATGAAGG
OBSERVABLE: PBM binding z-score

[[record]]
seq_string = "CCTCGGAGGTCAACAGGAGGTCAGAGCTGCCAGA"
observable = "PBM binding z-score"
result = 7.73

[[record]]
seq_string = "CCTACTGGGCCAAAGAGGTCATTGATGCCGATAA"
observable = "PBM binding z-score"
result = 3.31

[[record]]
seq_string = "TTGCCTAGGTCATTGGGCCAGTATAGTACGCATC"
observable = "PBM binding z-score"
result = 4.22

[[record]]
seq_string = "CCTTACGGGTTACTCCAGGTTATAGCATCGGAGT"
observable = "PBM binding z-score"
result = 0.779

[[record]]
seq_string = "GCTTAGGGGTCAAAGGTTATAGCATGAATAGAAT"
observable = "PBM binding z-score"
result = 7.06

[[record]]
seq_string = "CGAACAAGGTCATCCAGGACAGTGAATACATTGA"
observable = "PBM binding z-score"
result = 6.49

[[record]]
seq_string = "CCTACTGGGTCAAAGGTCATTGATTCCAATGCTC"
observable = "PBM binding z-score"
result = 5.88

[[record]]
seq_string = "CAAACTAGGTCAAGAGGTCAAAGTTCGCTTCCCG"
observable = "PBM binding z-score"
result = 7.43

[[record]]
seq_string = "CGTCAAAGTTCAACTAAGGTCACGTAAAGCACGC"
observable = "PBM binding z-score"
result = 8.89

[[record]]
seq_string = "ACTCGGAGGACAAAGGTCAGGGCTACGCCAGTGA"
observable = "PBM binding z-score"
result = 5.95

[[record]]
seq_string = "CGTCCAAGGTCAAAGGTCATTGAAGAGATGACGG"
observable = "PBM binding z-score"
result = 8.52

[[record]]
seq_string = "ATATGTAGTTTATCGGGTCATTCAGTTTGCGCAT"
observable = "PBM binding z-score"
result = 1.85

[[record]]
seq_string = "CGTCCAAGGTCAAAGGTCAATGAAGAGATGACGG"
observable = "PBM binding z-score"
result = 8.5

[[record]]
seq_string = "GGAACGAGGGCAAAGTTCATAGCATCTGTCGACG"
observable = "PBM binding z-score"
result = 3.92

[[record]]
seq_string = "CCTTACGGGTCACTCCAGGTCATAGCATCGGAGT"
observable = "PBM binding z-score"
result = 5.41


====

tested on: PPARg DBDmut IVT, anti-PPARg (DBD mutation: PPARg1 K132A/R137A, NR concentration 270 nM); test: PBM binding z-score (relative to random genomic background probes); higher = stronger binding; sequences stand for … in GC…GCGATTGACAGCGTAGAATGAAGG
OBSERVABLE: PBM binding z-score

[[record]]
seq_string = "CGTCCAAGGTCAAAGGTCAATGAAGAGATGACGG"
measured_number = 0.0116

[[record]]
seq_string = "TTACCAAGGTCAAAGGTCGTTGATGCACGCCTTG"
measured_number = 2.19

[[record]]
seq_string = "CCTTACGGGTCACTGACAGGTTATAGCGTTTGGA"
measured_number = -0.319

[[record]]
seq_string = "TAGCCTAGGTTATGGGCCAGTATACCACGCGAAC"
measured_number = -0.26

[[record]]
seq_string = "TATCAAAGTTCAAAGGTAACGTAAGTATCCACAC"
measured_number = 1.66

[[record]]
seq_string = "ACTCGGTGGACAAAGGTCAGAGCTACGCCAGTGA"
measured_number = -0.742

[[record]]
seq_string = "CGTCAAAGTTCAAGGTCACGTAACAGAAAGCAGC"
measured_number = 0.649

[[record]]
seq_string = "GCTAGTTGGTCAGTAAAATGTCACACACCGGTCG"
measured_number = -0.339

[[record]]
seq_string = "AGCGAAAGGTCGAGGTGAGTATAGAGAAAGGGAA"
measured_number = 0.386

[[record]]
seq_string = "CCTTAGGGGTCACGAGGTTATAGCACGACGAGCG"
measured_number = 2.27

[[record]]
seq_string = "CCTGCTAGGTCAAAGGTCAGCTAAAGCAGCTCGC"
measured_number = 2.19

[[record]]
seq_string = "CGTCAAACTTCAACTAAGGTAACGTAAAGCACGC"
measured_number = 0.79

[[record]]
seq_string = "TATACAGGGTCAAAGGTCAGAGTACGAATGTCGA"
measured_number = 1.85

